Value source: the supplement of paper PMC10307832

system: NCI-H2170; assay: relative viability (nuclei count vs DMSO), 5 days (fraction); higher = more cells survive; details: first compound 0.1 µM
In plain terms, low relative viability, meaning strictly below 0.5, gives Satisfied, and everything else gives Not satisfied.

CCN(CC)CCCCNc1ncc2cc(-c3cc(OC)cc(OC)c3)c(NC(=O)NC(C)(C)C)nc2n1 + Nc1nc2[nH]cc(CCc3ccc(C(=O)N[C@@H](CCC(=O)O)C(=O)O)cc3)c2c(=O)[nH]1 [Pemetrexed] (partner 0.2 µM)
Satisfied
O=c1cc(N2CCOCC2)oc2c(-c3cccc4c3sc3ccccc34)cccc12 + C[C@@H](Oc1cc(-c2cnn(C3CCNCC3)c2)cnc1N)c1c(Cl)ccc(F)c1Cl [Crizotinib] (partner 1 µM)
Not satisfied
O=c1cc(N2CCOCC2)oc2c(-c3cccc4c3sc3ccccc34)cccc12 + COc1cc2c(Oc3ccc(NC(=O)C4(C(=O)Nc5ccc(F)cc5)CC4)cc3F)ccnc2cc1OCCCN1CCOCC1 [Foretinib] (partner 0.25 µM)
Not satisfied
O=c1cc(N2CCOCC2)oc2c(-c3cccc4c3sc3ccccc34)cccc12 + Nc1ncn([C@H]2C[C@H](O)[C@@H](CO)O2)c(=O)n1 [Decitabine] (partner 2 µM)
Satisfied
CCN(CC)CCCCNc1ncc2cc(-c3cc(OC)cc(OC)c3)c(NC(=O)NC(C)(C)C)nc2n1 + Cc1nc(NC(=O)N2CCC[C@H]2C(N)=O)sc1-c1ccnc(C(C)(C)C(F)(F)F)c1 [Alpelisib] (partner 2 µM)
Not satisfied
O=c1cc(N2CCOCC2)oc2c(-c3cccc4c3sc3ccccc34)cccc12 + O=C(c1cc(Cc2n[nH]c(=O)c3ccccc23)ccc1F)N1CCN(C(=O)C2CC2)CC1 [Olaparib] (partner 8 µM)
Not satisfied

Prompt: Identify whether the compound CCN(CC)CCCCNc1ncc2cc(-c3cc(OC)cc(OC)c3)c(NC(=O)NC(C)(C)C)nc2n1 + N=C(N)NC(=N)NCCc1ccccc1 [Phenformin] (partner 250 µM) records relative viability below 0.5.
Completion: Satisfied

---

Consider the following molecules; for each one, report its relative viability.
system: BEN; assay: relative viability (nuclei count vs DMSO), 5 days (fraction); higher = more cells survive; conditions: first compound 0.253 µM
One number for each entry.

Observe how each entry below is paired with its result.
O=c1cc(-c2cccc3c2Sc2ccccc2S3)oc(N2CCOCC2)c1 + CS(=O)(=O)CCNCc1ccc(-c2ccc3ncnc(Nc4ccc(OCc5cccc(F)c5)c(Cl)c4)c3c2)o1 [Lapatinib] (partner 2 µM)
0.706
O=c1cc(-c2cccc3c2Sc2ccccc2S3)oc(N2CCOCC2)c1 + NC(=O)Nc1cc(-c2cccc(F)c2)sc1C(=O)N[C@H]1CCCNC1 [AZD7762] (partner 0.2 µM)
0.656
COc1nc(C)cnc1NS(=O)(=O)c1cccnc1-c1ccc(-c2nnco2)cc1 [Zibotentan] + Nc1nc2[nH]cc(CCc3ccc(C(=O)N[C@@H](CCC(=O)O)C(=O)O)cc3)c2c(=O)[nH]1 [Pemetrexed] (partner 0.2 µM)
0.707

Look up relative viability for the entries below, preserving their order.
1. O=c1cc(-c2cccc3c2Sc2ccccc2S3)oc(N2CCOCC2)c1 + Nc1ncn([C@H]2C[C@H](O)[C@@H](CO)O2)c(=O)n1 [Decitabine] (partner 2 µM)
2. O=c1cc(-c2cccc3c2Sc2ccccc2S3)oc(N2CCOCC2)c1 + CS(=O)(=O)N1CCN(Cc2cc3nc(-c4cccc5[nH]ncc45)nc(N4CCOCC4)c3s2)CC1 [Pictilisib] (partner 1 µM)

Completion:
[0.699, 0.671]

---

system: NCI-H1651; assay: relative viability (nuclei count vs DMSO), 5 days (fraction); higher = more cells survive; settings: first compound 0.01 µM
parameter: relative viability
One number for each entry.

Observe how each entry below is paired with its result.
O=c1cc(N2CCOCC2)oc2c(-c3cccc4c3sc3ccccc34)cccc12 + CCNC(=O)c1noc(-c2cc(C(C)C)c(O)cc2O)c1-c1ccc(CN2CCOCC2)cc1 [Luminespib] (partner 0.01 µM)
0.777
O=c1cc(N2CCOCC2)oc2c(-c3cccc4c3sc3ccccc34)cccc12 + Cc1cc(Nc2cc(N3CCN(C)CC3)nc(Sc3ccc(NC(=O)C4CC4)cc3)n2)n[nH]1 [Tozasertib] (partner 0.1 µM)
0.687
CCN(CC)CCCCNc1ncc2cc(-c3cc(OC)cc(OC)c3)c(NC(=O)NC(C)(C)C)nc2n1 + Nc1nc2[nH]cc(CCc3ccc(C(=O)N[C@@H](CCC(=O)O)C(=O)O)cc3)c2c(=O)[nH]1 [Pemetrexed] (partner 0.2 µM)
0.597
O=c1cc(N2CCOCC2)oc2c(-c3cccc4c3sc3ccccc34)cccc12 + Cc1nc(NC(=O)N2CCC[C@H]2C(N)=O)sc1-c1ccnc(C(C)(C)C(F)(F)F)c1 [Alpelisib] (partner 2 µM)
0.924
O=c1cc(N2CCOCC2)oc2c(-c3cccc4c3sc3ccccc34)cccc12 + CC1(C)CCC(c2ccc(Cl)cc2)=C(CN2CCN(c3ccc(C(=O)NS(=O)(=O)c4ccc(N[C@H](CCN5CCOCC5)CSc5ccccc5)c(S(=O)(=O)C(F)(F)F)c4)cc3)CC2)C1 [Navitoclax] (partner 0.5 µM)
1.07
CCN(CC)CCCCNc1ncc2cc(-c3cc(OC)cc(OC)c3)c(NC(=O)NC(C)(C)C)nc2n1 + COc1cc2c(Oc3ccc(NC(=O)C4(C(=O)Nc5ccc(F)cc5)CC4)cc3F)ccnc2cc1OCCCN1CCOCC1 [Foretinib] (partner 0.25 µM)
0.789

Query compound follows.
Lab note: measured relative viability of O=c1cc(N2CCOCC2)oc2c(-c3cccc4c3sc3ccccc34)cccc12 + C[C@]1(O)C[C@@H](c2nc(-c3ccc4ccc(-c5ccccc5)nc4c3)c3c(N)nccn32)C1 [Linsitinib] (partner 1 µM) was 1.1

---

tested on: EBC-1; assay: relative viability (nuclei count vs DMSO), 5 days (fraction); higher = more cells survive; conditions: first compound 0.8 µM
Consider the following molecules; for each one, report its relative viability.
Answers are plain numbers.

Observe how each entry below is paired with its result.
O=c1cc(-c2cccc3c2Sc2ccccc2S3)oc(N2CCOCC2)c1 + CC(C)C[C@H](NC(=O)[C@H](Cc1ccccc1)NC(=O)c1cnccn1)B(O)O [Bortezomib] (partner 0.002 µM)
0.546
COc1nc(C)cnc1NS(=O)(=O)c1cccnc1-c1ccc(-c2nnco2)cc1 [Zibotentan] + CS(=O)(=O)N1CCN(Cc2cc3nc(-c4cccc5[nH]ncc45)nc(N4CCOCC4)c3s2)CC1 [Pictilisib] (partner 1 µM)
0.486
COc1nc(C)cnc1NS(=O)(=O)c1cccnc1-c1ccc(-c2nnco2)cc1 [Zibotentan] + C[C@]1(O)C[C@@H](c2nc(-c3ccc4ccc(-c5ccccc5)nc4c3)c3c(N)nccn32)C1 [Linsitinib] (partner 1 µM)
0.934
COc1nc(C)cnc1NS(=O)(=O)c1cccnc1-c1ccc(-c2nnco2)cc1 [Zibotentan] + CC1(C)CCC(c2ccc(Cl)cc2)=C(CN2CCN(c3ccc(C(=O)NS(=O)(=O)c4ccc(N[C@H](CCN5CCOCC5)CSc5ccccc5)c(S(=O)(=O)C(F)(F)F)c4)cc3)CC2)C1 [Navitoclax] (partner 0.5 µM)
0.477
COc1nc(C)cnc1NS(=O)(=O)c1cccnc1-c1ccc(-c2nnco2)cc1 [Zibotentan] + C[C@@H](Oc1cc(-c2cnn(C3CCNCC3)c2)cnc1N)c1c(Cl)ccc(F)c1Cl [Crizotinib] (partner 1 µM)
0.202
O=c1cc(-c2cccc3c2Sc2ccccc2S3)oc(N2CCOCC2)c1 + C[C@]1(O)C[C@@H](c2nc(-c3ccc4ccc(-c5ccccc5)nc4c3)c3c(N)nccn32)C1 [Linsitinib] (partner 1 µM)
0.828

Query molecule follows.
Lab note: measured relative viability of O=c1cc(-c2cccc3c2Sc2ccccc2S3)oc(N2CCOCC2)c1 + CC1(C)CCC(c2ccc(Cl)cc2)=C(CN2CCN(c3ccc(C(=O)NS(=O)(=O)c4ccc(N[C@H](CCN5CCOCC5)CSc5ccccc5)c(S(=O)(=O)C(F)(F)F)c4)cc3)CC2)C1 [Navitoclax] (partner 0.5 µM) was 0.401

---

Consider the following molecules; for each one, report its relative viability.
test system: NCI-H1563; experiment: relative viability (nuclei count vs DMSO), 5 days (fraction); higher = more cells survive; settings: first compound 0.1 µM
One number for each entry.

Observe how each entry below is paired with its result.
CCN(CC)CCCCNc1ncc2cc(-c3cc(OC)cc(OC)c3)c(NC(=O)NC(C)(C)C)nc2n1 + COc1cc2c(Oc3ccc(NC(=O)C4(C(=O)Nc5ccc(F)cc5)CC4)cc3F)ccnc2cc1OCCCN1CCOCC1 [Foretinib] (partner 0.25 µM)
1.03
O=c1cc(N2CCOCC2)oc2c(-c3cccc4c3sc3ccccc34)cccc12 + CS(=O)(=O)N1CCN(Cc2cc3nc(-c4cccc5[nH]ncc45)nc(N4CCOCC4)c3s2)CC1 [Pictilisib] (partner 1 µM)
0.659

Query molecule follows.
Lab note: measured relative viability of O=c1cc(N2CCOCC2)oc2c(-c3cccc4c3sc3ccccc34)cccc12 + COc1cc2c(Oc3ccc(NC(=O)C4(C(=O)Nc5ccc(F)cc5)CC4)cc3F)ccnc2cc1OCCCN1CCOCC1 [Foretinib] (partner 0.25 µM) was 0.895
